# protocol-description: gradient 5% acetonitrile 3 min, to 50% in 2 min, to 85% in 15 min, held 3 min, 100 µL/min
# protocol-conditions: column: Zorbax Extend-C18 2.1 x 50 mm; eluents: water / acetonitrile, 0.1% formic acid
quantity: RP-LC retention time (s)

compound	measurement-units	RP-LC retention time
O=C(CSc1ccc(-c2cccc([N+](=O)[O-])c2)nn1)NCc1cccs1	s	766
COc1cccc(-c2noc(Cn3cnc4c(nnn4-c4ccccc4OC)c3=O)n2)c1	s	914
O=c1ccc(-c2ccccc2)nn1Cc1nc(-c2ccc3c(c2)OCO3)no1	s	959
O=C(c1cc(F)ccc1F)N1CCCC2(C1)NC(=O)N(Cc1ccc(Cl)cc1)C2=O (centres undefined)	s	844
CCOc1ccc(CNC(=O)C2CCCN(c3nccnc3Sc3ccccc3)C2)cc1OCC (centres undefined)	s	1030
COc1ccccc1-c1noc(CN2C(=O)C(C)Oc3ccccc32)n1 (centres undefined)	s	944
CCc1ccccc1NC(=O)N1CCCC1c1cc(C)on1 (centres undefined)	s	774
O=C(Nc1ccccc1)C1CCCN(c2ncnc3c2nc2n3CCCCC2)C1 (centres undefined)	s	774
O=C1NC2(CCN(C(=O)c3ccc(F)cc3)CC2)Nc2cc(Cl)ccc21	s	742
